test system: U2OS; assay: Multiplex assay against U2OS; assay type: toxicity, cell-based; conditions: human, 12 h, 1 µM, compound concentration 1 uM, replicate 1
Listing of recorded Population Normal (%) by entry.

{"compound": "Cc1ccc(C(C)(O)c2nc3ccccc3s2)c(C)c1 (centres undefined)", "Population Normal (%)": 96}
{"compound": "O=C(NCCO)c1cccc(-c2cc(Nc3ccc(OC(F)(F)F)cc3)ncn2)c1", "Population Normal (%)": 98}
{"compound": "CC(=O)NCCc1c(Cc2ccccc2)[nH]c2ccccc12", "Population Normal (%)": 96}
{"compound": "COc1c(C)cc(NC(=O)c2nn(Cc3ccc(F)cc3)c3c2CN(C(=O)c2ccc[nH]2)C[C@]3(C)C(N)=O)cc1C", "Population Normal (%)": 97}
{"compound": "CCCN1CCC[C@@H]2Cc3n[nH]cc3C[C@H]21.Cl [QUINPIROLE HYDROCHLORIDE]", "Population Normal (%)": 97}
{"compound": "Cc1nc2ccc(Oc3ccc(F)cc3)cc2c(=O)n1C[C@H]1CCCN(C(C)C)C1.Cl", "Population Normal (%)": 96}
{"compound": "O=C1COc2nccc(-c3ccccc3F)c2CN1Cc1cc(C(F)(F)F)cc(C(F)(F)F)c1", "Population Normal (%)": 95}
{"compound": "CC[C@H]1OC(=O)[C@H](C)[C@@H](O[C@H]2C[C@@](C)(OC)[C@@H](O)[C@H](C)O2)[C@H](C)[C@@H](O[C@@H]2O[C@H](C)C[C@H](N(C)C)[C@H]2O)[C@@]2(C)CC(C)=C(O2)[C@H](C)[C@@H](O)[C@]1(C)O", "Population Normal (%)": 96}
{"compound": "O=C(O)Cc1ccccc1Nc1c(Cl)cccc1Cl", "Population Normal (%)": 94}
{"compound": "CN(C)c1ccnc2sc3c(=O)n(N4CCCCCC4)cnc3c12", "Population Normal (%)": 98}
{"compound": "CCCn1c(=O)c2[nH]c(C3CCCC3)nc2n(CCC)c1=O", "Population Normal (%)": 98}
{"compound": "c1cc(OCCCN2CCCCC2)ccc1CN1CCCCC1", "Population Normal (%)": 97}
{"compound": "CC1(COc2ccc3c(c2)ncn3-c2ccc3cccc(N4CCC(N)CC4)c3n2)COC1", "Population Normal (%)": 90}
{"compound": "CN(C)CCCc1cc(C(=O)Nc2ccc(-c3ccncc3)cc2)ccc1O.Cl.Cl", "Population Normal (%)": 97}
{"compound": "COc1ccc2c(c1)C(C(=O)N(Cc1ccc(N(C)C)cc1)c1ccc(C(C)C)cc1)CCC2.Cl (centres undefined)", "Population Normal (%)": 95}
{"compound": "COc1cc(NC(=O)CCN2CCC(OC(=O)Nc3ccccc3-c3ccccc3)CC2)c(Cl)cc1CNC[C@H](O)c1ccc(O)c2[nH]c(=O)ccc12", "Population Normal (%)": 95}
{"compound": "CCOc1c2c(c(OCC)c3ncccc13)CN(c1ccc(CS(=O)(=O)NC(=O)Cc3ccccc3OC)cc1C)C2=O", "Population Normal (%)": 97}
{"compound": "COc1cc(C(=O)N(CCCc2ccccc2)Cc2ccc(CC(=O)O)cc2)cc(OC)c1C", "Population Normal (%)": 95}
{"compound": "CNC[C@H](O)c1ccc(O)c(O)c1 [EPINEPHRINE]", "Population Normal (%)": 97}
{"compound": "CCNC1(C(N)=O)CCN(c2ncnc3c2nc(-c2ccccc2Cl)n3-c2ccc(Cl)cc2)CC1", "Population Normal (%)": 96}
{"compound": "CC(C)(C)c1ccc(S(=O)(=O)Nc2ccc(Cl)cc2C(=O)c2cc[n+]([O-])cc2)cc1", "Population Normal (%)": 98}
{"compound": "Oc1c(CN2CCN(c3ccccn3)CC2)cc(Cl)c2cccnc12", "Population Normal (%)": 98}
{"compound": "C[C@@H]1C[C@H]2[C@@H]3CCC4=CC(=O)C=C[C@]4(C)[C@@]3(F)[C@@H](O)C[C@]2(C)[C@@]1(O)C(=O)CO", "Population Normal (%)": 97}
{"compound": "Cc1ccc(F)cc1C(=O)Nc1ccc(C(=O)N2Cc3cccn3Cc3ccccc32)c(Cl)c1", "Population Normal (%)": 96}
{"compound": "O=C(NCC(=O)N1CC[C@H](N[C@H]2CC[C@@](O)(c3ccc(-c4ncccn4)cn3)CC2)C1)c1cccc(C(F)(F)F)c1", "Population Normal (%)": 98}
{"compound": "CSc1ccccc1N1CCN(CCCCCC(=O)NC2CCCc3ccccc32)CC1.Cl (centres undefined)", "Population Normal (%)": 90}
{"compound": "Cl.Clc1ccc2nsnc2c1NC1=NCCN1 [TIZANIDINE HYDROCHLORIDE]", "Population Normal (%)": 97}
{"compound": "Cc1ccccc1C(=O)Nc1ccc(C(=O)N2CCCC(N(C)C)c3ccccc32)cc1.Cl (centres undefined)", "Population Normal (%)": 98}
{"compound": "CN1CCN(c2nc3cc(C(F)(F)F)ccc3n3cccc23)CC1.O=C(O)/C=C\\C(=O)O.O=C(O)/C=C\\C(=O)O", "Population Normal (%)": 98}
{"compound": "CN1CCN2c3ncccc3Cc3ccccc3C2C1 (centres undefined)", "Population Normal (%)": 99}
{"compound": "N[C@@]1(C(=O)O)CO[C@H]2[C@H](C(=O)O)[C@H]21", "Population Normal (%)": 99}
{"compound": "C[C@H]1[C@H]2CC[C@H]3[C@@H]4CC=C5C[C@@H](N(C)C)CC[C@]5(C)[C@H]4CC[C@]23CN1C", "Population Normal (%)": 97}
{"compound": "Cc1ccc(-c2ccc(F)cc2COc2ccc(CCC(=O)O)cc2)cc1", "Population Normal (%)": 97}
{"compound": "O=C(O)c1cc2ccccc2c(Cc2c(O)c(C(=O)O)cc3ccccc23)c1O", "Population Normal (%)": 98}
